biological target: human KDR (VEGFR2) on cells (human, UniProt P35968 20-1356); test: cell-based or functional assay; note: test concentration or dose not given here
Sequence (P35968 20-1356): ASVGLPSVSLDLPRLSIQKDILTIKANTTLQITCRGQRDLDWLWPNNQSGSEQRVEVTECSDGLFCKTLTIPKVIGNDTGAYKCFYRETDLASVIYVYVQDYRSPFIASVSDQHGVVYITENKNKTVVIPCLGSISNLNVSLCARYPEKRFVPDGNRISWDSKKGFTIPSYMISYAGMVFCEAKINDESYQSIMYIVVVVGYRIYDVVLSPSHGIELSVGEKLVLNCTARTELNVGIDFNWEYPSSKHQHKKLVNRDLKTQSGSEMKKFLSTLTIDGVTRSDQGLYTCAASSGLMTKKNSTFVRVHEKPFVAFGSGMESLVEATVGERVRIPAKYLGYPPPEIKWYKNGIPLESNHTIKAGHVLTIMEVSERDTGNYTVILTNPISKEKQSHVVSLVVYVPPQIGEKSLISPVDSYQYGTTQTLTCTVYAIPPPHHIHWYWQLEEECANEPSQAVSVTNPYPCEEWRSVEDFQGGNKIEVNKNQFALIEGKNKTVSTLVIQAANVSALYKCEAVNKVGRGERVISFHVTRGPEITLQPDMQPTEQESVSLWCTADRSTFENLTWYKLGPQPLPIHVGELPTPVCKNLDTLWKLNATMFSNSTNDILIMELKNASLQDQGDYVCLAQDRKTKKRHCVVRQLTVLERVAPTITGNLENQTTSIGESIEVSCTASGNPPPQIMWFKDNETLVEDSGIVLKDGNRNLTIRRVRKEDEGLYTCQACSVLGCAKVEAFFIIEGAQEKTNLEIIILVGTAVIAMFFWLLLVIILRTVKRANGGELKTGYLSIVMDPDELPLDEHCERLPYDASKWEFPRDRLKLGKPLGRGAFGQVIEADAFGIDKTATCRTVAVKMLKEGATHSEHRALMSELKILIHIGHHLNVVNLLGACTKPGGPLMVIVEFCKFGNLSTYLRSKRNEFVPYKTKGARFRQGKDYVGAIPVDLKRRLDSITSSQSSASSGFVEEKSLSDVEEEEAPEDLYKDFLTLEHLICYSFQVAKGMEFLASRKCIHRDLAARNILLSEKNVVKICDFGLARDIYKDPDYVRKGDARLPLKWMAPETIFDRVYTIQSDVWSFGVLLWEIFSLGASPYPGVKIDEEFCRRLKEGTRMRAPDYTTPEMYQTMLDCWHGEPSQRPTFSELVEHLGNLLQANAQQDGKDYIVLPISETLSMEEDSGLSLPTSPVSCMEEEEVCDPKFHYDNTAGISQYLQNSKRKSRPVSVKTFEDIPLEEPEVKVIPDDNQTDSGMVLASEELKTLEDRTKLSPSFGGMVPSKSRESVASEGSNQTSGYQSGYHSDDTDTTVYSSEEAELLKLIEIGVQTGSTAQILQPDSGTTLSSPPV
Below is a list of entries, each paired with its recorded % Inhibition of VEGF-E-mediated pTyr Activity value.
// note: answer is a bare numeric in %

Take a look at these entries with their results.
# binder, unit-abbrev, test-result
data = [
    ("anti-KDR monoclonal antibody 33C3 (antibody, V domains shown, Fully human mAb from XenoMouse (IgG2 or IgG4 strain); hybridoma supernatant) VH: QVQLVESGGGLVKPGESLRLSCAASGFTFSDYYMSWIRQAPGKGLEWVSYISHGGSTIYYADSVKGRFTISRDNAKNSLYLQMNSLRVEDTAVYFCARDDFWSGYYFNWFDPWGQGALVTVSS VL: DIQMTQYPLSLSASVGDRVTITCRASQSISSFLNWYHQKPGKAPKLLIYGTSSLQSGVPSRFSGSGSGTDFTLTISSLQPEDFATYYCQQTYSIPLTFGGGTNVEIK", "%", 66),
    ("anti-KDR monoclonal antibody 21H6 (antibody, V domains shown, Fully human mAb from XenoMouse; hybridoma supernatant) VH: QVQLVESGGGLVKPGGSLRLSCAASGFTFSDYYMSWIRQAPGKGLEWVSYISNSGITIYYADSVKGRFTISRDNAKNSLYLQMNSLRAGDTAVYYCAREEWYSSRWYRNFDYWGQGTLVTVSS VL: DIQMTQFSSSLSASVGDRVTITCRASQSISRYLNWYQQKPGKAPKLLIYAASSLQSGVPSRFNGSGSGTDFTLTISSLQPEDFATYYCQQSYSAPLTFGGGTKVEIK", "%", 70),
]

Provide one value: measured % Inhibition of VEGF-E-mediated pTyr Activity of anti-KDR monoclonal antibody 30A1 (antibody, V domains shown, Fully human mAb from XenoMouse (IgG2 or IgG4 strain); hybridoma supernatant) VH: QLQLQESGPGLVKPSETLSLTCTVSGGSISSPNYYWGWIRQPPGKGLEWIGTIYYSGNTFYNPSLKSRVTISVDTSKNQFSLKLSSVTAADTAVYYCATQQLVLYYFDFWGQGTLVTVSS VL: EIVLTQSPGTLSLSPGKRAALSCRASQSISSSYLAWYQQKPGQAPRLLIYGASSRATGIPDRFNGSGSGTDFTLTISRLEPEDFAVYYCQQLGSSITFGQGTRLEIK
50

Answer with the recorded % Inhibition of VEGF-E-mediated pTyr Activity of anti-KDR monoclonal antibody 29F7 (antibody, V domains shown, Fully human mAb from XenoMouse (IgG2 or IgG4 strain); hybridoma supernatant) VH: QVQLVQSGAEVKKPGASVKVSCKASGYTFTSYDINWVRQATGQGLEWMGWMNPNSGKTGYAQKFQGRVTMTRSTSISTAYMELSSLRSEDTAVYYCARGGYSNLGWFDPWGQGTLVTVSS VL: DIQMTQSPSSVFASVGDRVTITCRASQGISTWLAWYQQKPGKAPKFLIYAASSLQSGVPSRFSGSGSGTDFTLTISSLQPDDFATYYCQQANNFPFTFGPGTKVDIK only.
45

Quote % Inhibition of VEGF-E-mediated pTyr Activity reported for anti-KDR monoclonal antibody 33B1 (antibody, V domains shown, Fully human mAb from XenoMouse (IgG2 or IgG4 strain); hybridoma supernatant) VH: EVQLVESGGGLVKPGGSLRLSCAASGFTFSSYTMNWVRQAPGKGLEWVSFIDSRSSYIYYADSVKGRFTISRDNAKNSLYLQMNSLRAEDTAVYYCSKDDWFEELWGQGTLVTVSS VL: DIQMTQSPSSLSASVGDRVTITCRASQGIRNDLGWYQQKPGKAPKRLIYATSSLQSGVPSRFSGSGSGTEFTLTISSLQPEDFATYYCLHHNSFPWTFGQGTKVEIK please.
54

Specify reported % Inhibition of VEGF-E-mediated pTyr Activity for the binder shown: anti-KDR monoclonal antibody 29H3 (antibody, V domains shown, Fully human mAb from XenoMouse (IgG2 or IgG4 strain); hybridoma supernatant) VH: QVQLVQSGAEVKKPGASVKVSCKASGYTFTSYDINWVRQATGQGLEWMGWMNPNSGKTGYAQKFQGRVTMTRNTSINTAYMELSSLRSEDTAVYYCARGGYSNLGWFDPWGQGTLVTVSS VL: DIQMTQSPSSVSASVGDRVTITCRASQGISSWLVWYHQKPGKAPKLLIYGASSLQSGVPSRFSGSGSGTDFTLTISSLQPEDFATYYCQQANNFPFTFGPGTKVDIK
18

Return reported % Inhibition of VEGF-E-mediated pTyr Activity. Input binder: anti-KDR monoclonal antibody 33D5 (antibody, V domains shown, Fully human mAb from XenoMouse (IgG2 or IgG4 strain); hybridoma supernatant) VH: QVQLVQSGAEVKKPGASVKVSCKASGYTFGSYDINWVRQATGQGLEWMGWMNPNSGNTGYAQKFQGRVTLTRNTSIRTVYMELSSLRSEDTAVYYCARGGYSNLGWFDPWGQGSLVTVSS VL: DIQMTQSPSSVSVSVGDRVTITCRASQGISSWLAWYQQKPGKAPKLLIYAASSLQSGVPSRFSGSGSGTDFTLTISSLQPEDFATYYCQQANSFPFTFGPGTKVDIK
30

Name the recorded % Inhibition of VEGF-E-mediated pTyr Activity of the item anti-KDR monoclonal antibody 30D7 (antibody, V domains shown, Fully human mAb from XenoMouse (IgG2 or IgG4 strain); hybridoma supernatant) VH: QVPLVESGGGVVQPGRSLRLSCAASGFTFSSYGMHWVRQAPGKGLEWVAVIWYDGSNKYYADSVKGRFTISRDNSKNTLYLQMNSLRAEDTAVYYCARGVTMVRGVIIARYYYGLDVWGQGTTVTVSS VL: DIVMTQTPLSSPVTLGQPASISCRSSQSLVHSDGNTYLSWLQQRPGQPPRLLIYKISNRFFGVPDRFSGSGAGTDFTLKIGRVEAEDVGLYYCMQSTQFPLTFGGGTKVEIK in your answer.
24

Return reported % Inhibition of VEGF-E-mediated pTyr Activity. Input binder: anti-KDR monoclonal antibody 21A1 (antibody, V domains shown, Fully human mAb from XenoMouse (IgG2 or IgG4 strain); hybridoma supernatant) VH: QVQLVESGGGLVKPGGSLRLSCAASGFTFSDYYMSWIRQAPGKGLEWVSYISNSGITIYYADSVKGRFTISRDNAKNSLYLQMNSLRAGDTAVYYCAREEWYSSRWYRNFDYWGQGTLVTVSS VL: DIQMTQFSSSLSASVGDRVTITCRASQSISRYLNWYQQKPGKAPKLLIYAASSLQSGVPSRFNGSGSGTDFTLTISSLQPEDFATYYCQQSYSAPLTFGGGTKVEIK
67

Look up % Inhibition of VEGF-E-mediated pTyr Activity of anti-KDR monoclonal antibody 31E11 (antibody, V domains shown, Fully human mAb from XenoMouse (IgG2 or IgG4 strain); hybridoma supernatant) VH: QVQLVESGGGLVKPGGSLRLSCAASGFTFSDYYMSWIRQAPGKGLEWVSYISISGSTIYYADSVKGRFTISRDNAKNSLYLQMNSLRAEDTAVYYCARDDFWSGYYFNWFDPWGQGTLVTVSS VL: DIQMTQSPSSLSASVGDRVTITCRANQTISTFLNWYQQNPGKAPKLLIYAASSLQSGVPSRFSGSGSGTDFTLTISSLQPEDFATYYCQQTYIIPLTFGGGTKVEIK and report it.
67
